Target: T1, Human a7 Genu Calf 1-2 (human, UniProt Q13683 679-1078, limits assumed)
T1 construct: domain: Genu Calf 1-2
T1 sequence (looked up): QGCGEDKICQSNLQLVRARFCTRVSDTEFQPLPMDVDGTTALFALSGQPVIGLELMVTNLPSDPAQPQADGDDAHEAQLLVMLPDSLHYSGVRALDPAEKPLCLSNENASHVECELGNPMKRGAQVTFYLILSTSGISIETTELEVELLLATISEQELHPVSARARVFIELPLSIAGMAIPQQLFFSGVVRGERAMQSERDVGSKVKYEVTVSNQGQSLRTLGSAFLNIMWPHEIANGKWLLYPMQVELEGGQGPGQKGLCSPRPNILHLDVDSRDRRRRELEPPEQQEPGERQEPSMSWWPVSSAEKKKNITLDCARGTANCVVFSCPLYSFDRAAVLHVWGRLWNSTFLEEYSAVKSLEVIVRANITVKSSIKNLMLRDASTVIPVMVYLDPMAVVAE
Assay: SPR
Measure: Kd (nM)
Give bare numbers, in nM.

Challenge: Entry under review: Ab26 (antibody, human IgG1, kappa, L234A L235A, V domains shown) VH: EVQLVQSGAEVKKPGSSVKVSCKASGYSFTRYWMHWVRQAPGQGLEWIGKIDPSDSETRLNQEFRDRATLTVDKSTSTAYMELSSLRSEDTAVYYCARGGYFGEEWYHDVWGQGTLVTVSS VL: DIVMTQSPLSLPVTPGEPASISCRSSQSLVHRNGNTYLHWYLQKPGQSPQLLIYEVSNRFTGVPDRFSGSGSGTDFTLKISRVEAEDVGVYFCAQSTQLPYTFGGGTKLEIKR . Reported Kd?
Response given: 0.3

The values you see were collected from patent US20250289894A1.
